The measurements presented in this section are drawn from paper PMC10726451.

# ASSAY_TEXT: LogD at pH 7.4, miniaturised shake flask
# Format: physicochemical
# PARTICULARS: 1-octanol/PBS (1:1, v/v), pre-saturated; 1-octanol/PBS, pH 7.4, 25 °C
VALUE_TYPE: logD
Write the number on its own, no unit after it.

Recorded result, `O=C(NC1CCN(CCOc2ccc(Cl)cc2)CC1)c1c[nH]c2ccncc2c1=O` , logD: 2.9

---

# ASSAY_TEXT: Metabolic stability in cryopreserved rat hepatocytes
# Assay type: in vitro ADME
# PARTICULARS: rat, hepatocytes
VALUE_TYPE: hepatocyte CLint at 1.5 h, 1 µM (µL/min/1e6 cells)
Output spec: scalar in µL/min/1e6 cells, unitless text.

Recorded result, CN1CCN(CCCCNC2CC3CCC(C2)N3Cc2ccccc2)CC1 (stereo not shown) [MMV1797951] , hepatocyte CLint at 1.5 h, 1 µM: 1.4

---

# ASSAY_TEXT: Solubility in PBS pH 7.4, miniaturised shake flask
# Format: physicochemical
# PARTICULARS: phosphate buffered saline, aqueous buffer, kinetic from dmso stock; PBS pH 7.4, test compound 200 µM, 25 °C, 2 hours
# maps each entry to its solubility kinetic at 2 h, 200 µM
Output spec: scalar in µM, unitless text.

# count of solved cases: 4
COc1ccc(-c2cncc(C(=O)NCC3CCN(CCN(C)C)CC3)c2)cc1 [MMV1799348]
198
Cc1c(CN2CCC(O)(Cn3ccnc3)CC2)[nH]c2c(Cl)cccc12 [MMV1801316]
86
O=C(NC1CCN(CCOc2ccc(Cl)cc2)CC1)c1c[nH]c2ccncc2c1=O [MMV1798946]
170
CC1(N2CCC2)CCC(NCC2CCN(Cc3ccccc3)C2)CC1 (centres unmarked) [MMV1798925]
173

Moving on to the next molecule.
Recorded result, Cc1cnccc1N1CCCN(Cc2ccccc2OCCN2CCN(C)CC2)CC1 [MMV1802771] , solubility kinetic at 2 h, 200 µM: 100

---

# maps each entry to its logD at 2 h, 75 µM
# ASSAY_TEXT: LogD at pH 7.4, miniaturised shake flask
# Type: physicochemical
# PARTICULARS: 1-octanol/PBS (1:1, v/v), pre-saturated; 1-octanol/PBS, pH 7.4, 25 °C; read-out: LogD pH 7.4
Write the number on its own, no unit after it.

# count of solved cases: 5
CC1(N2CCC2)CCC(NCC2CCN(Cc3ccccc3)C2)CC1 (stereo not drawn)
0.3
CN1CCC(Oc2ccc(NC(=O)c3cn4ccnc4s3)cn2)CC1
1
Cc1c(CN2CCC(O)(Cn3ccnc3)CC2)[nH]c2c(Cl)cccc12
2.8
c1ccc(-c2ccnc(C3CCN(CC45CNCC4C5)CC3)n2)cc1 (stereo not drawn)
0.5
Cc1cnccc1N1CCCN(Cc2ccccc2OCCN2CCN(C)CC2)CC1
1

Moving on to the next compound.
Recorded result, `COc1ccc(-c2cncc(C(=O)NCC3CCN(CCN(C)C)CC3)c2)cc1` , logD at 2 h, 75 µM: 1.2

---

# ASSAY_TEXT: Metabolic stability in human liver microsomes
# Format: in vitro ADME
# PARTICULARS: 1 µM compound, 0.5 mg/mL pooled human liver microsomes
# maps each entry to its microsomal CLint at 1 h, 1 µM
Output spec: scalar in µL/min/mg, unitless text.

Cc1c(CN2CCC(O)(Cn3ccnc3)CC2)[nH]c2c(Cl)cccc12
24.1
CC1(N2CCC2)CCC(NCC2CCN(Cc3ccccc3)C2)CC1 (stereo not drawn)
3.5

Moving on to the next molecule.
Recorded result, `CN1CCC(Oc2ccc(NC(=O)c3cn4ccnc4s3)cn2)CC1` , microsomal CLint at 1 h, 1 µM: 3.7
